Value source: paper PMC7329812

The following molecules are listed with their measured % of block in NaChBac values.
measured on: NaChBac (Halalkalibacterium halodurans (Bacillus halodurans), UniProt Q9KCR8)
Sequence (Q9KCR8 1-274): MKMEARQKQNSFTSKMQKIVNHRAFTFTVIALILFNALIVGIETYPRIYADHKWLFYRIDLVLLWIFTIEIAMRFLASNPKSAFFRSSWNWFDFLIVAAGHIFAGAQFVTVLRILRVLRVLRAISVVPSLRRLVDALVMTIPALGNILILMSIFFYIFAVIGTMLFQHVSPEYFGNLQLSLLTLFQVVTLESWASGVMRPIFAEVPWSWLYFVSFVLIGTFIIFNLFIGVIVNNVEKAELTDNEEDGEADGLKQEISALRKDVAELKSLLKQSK
test protocol: cell-based
Format: cell-based
condition notes: hek 293 cells
Your answer should be a number followed by the unit of measure.

Observe how each entry below is paired with its result.
Cc1ccc(C(=O)C(C)CN2CCCCC2)cc1 (stereo not drawn) : 86.2±2.5%
COc1ccc(CCN(C)CCCOc2nsc(-c3ccccc3)n2)cc1OC : 76.3±1.1%
Cc1cccc(C)c1NC(=O)C1CCCCN1C (stereo not drawn) [Mepivacaine] : 67.7±2.5%
COc1ccc(C(=O)O[C@H]2CC[C@@]3(C)[C@@H]4CC[C@H]5[C@]6(O)C[C@H](O)[C@@]7(O)[C@@H](CN8C[C@@H](C)CC[C@H]8[C@@]7(C)O)[C@]6(O)C[C@@]53O[C@]24O)cc1OC : 65.6±3.2%
Nc1c(Br)cc(Br)cc1CN[C@H]1CC[C@H](O)CC1 : 93.6±3.8%
Cc1cccc(C)c1OCC(C)N (stereo not drawn) : 74.2±1.8%
C[C@H](NCc1ccc(OCc2ccccc2F)cc1)C(N)=O [Ralfinamide] : 97.7±3.0%
CC[N+](CC)(CC)CC(=O)Nc1c(C)cccc1C : 16.2±2.6%

Kindly consider the entry below.
Task: Given CCCCN1CCCCC1C(=O)Nc1c(C)cccc1C (stereo not drawn) , respond with its % of block in NaChBac.
Output: 46.6±2.9%

###

measured on: NaChBac (Halalkalibacterium halodurans (Bacillus halodurans), UniProt Q9KCR8)
test protocol: cell-based
Assay type: cell-based
condition notes: hek 293 cells
measured attribute: % of block in NaChBac (%)
API: value field is a number in %; no unit string.

Observe how each entry below is paired with its result.
CCN(CC)CC(=O)Nc1c(C)cccc1C : 74.1
NC(=O)N1c2ccccc2CC(=O)c2ccccc21 [oxcarbazepine] : 18.2

Kindly consider the entry below.
Task: Given COc1ccccc1OCC(O)CN1CCN(CC(=O)Nc2c(C)cccc2C)CC1 (stereo not drawn) , respond with its % of block in NaChBac.
Output: 42.5

###

measured on: NaChBac (Halalkalibacterium halodurans (Bacillus halodurans), UniProt Q9KCR8)
test protocol: cell-based
Format: cell-based
measured attribute: G–V slope factor k[n], NaChBac, after compound

Observe how each entry below is paired with its result.
CCN(CC)CC(=O)Nc1c(C)cccc1C : 4.8 ± 0.4
Nc1c(Br)cc(Br)cc1CN[C@H]1CC[C@H](O)CC1 : 5.7 ± 0.6
COc1ccc(C(=O)O[C@H]2CC[C@@]3(C)[C@@H]4CC[C@H]5[C@]6(O)C[C@H](O)[C@@]7(O)[C@@H](CN8C[C@@H](C)CC[C@H]8[C@@]7(C)O)[C@]6(O)C[C@@]53O[C@]24O)cc1OC : 10.3 ± 0.3

Kindly consider the entry below.
Task: Given `CCN1C[C@]2(COC)[C@H](O)C[C@H](OC)[C@@]34[C@@H]5C[C@@]6(O)[C@H](OC(=O)c7ccccc7)[C@@H]5[C@@](OC(C)=O)([C@@H]([C@H](OC)[C@H]23)[C@@H]14)[C@@H](O)[C@@H]6OC` , respond with its G–V slope factor k[n], NaChBac, after compound.
Output: 5.0 ± 0.2
